Hello, the source for this data is PubChem BioAssay (NCI), in case you need it.

- Test system: 786-0 renal
- METHOD: NCI tumour cell line growth inhibition, 48 h
I'd appreciate it if you could supply TGI values for the items below.

Take a look at these entries with their results.
| COMPOUND | TGI |
| --- | --- |
| COCn1cc(C2=C(C)C(=O)C(C)=C(C)C2=O)cn1 | 32.2 µM |
| Nc1nc(SCC(=O)c2ccccc2)c2[nH]cnc2n1 | > 100 µM |
| C=C1N(S(=O)(=O)c2ccc(C)cc2)C(=O)OCC12CCCC2 | > 100 µM |
| Cc1cccc(NC(=O)C(=O)C(C2OC(=O)c3ccccc32)[N+](=O)[O-])c1C (stereo unspecified) | 21.8 µM |
| O=c1[nH]c(=O)c2c([nH]1)[nH]c1ccc(Br)cc12 | > 100 µM |
| COc1ccc(-c2sc(Br)c3c2C(=O)C2OC(=O)NC32)cc1OC (stereo unspecified) | > 100 µM |
| O=C1Nc2ccc(Br)cc2/C1=N/S(=O)(=O)O | 68.2 µM |
| Cc1cc(C)c(NS(=O)c2cccc(C(F)(F)F)c2)c(C)c1 (stereo unspecified) | > 100 µM |

For each of the compounds below, state TGI.
1. CC1(c2ccccc2)O[C@@H]2C[C@H]3[C@@H]4CCC5=CC(=O)C=C[C@]5(C)[C@@]4(F)[C@@H](O)C[C@]3(C)[C@]2(C(=O)CO)O1 (stereo partly specified)
2. COc1cc(OCc2ccccc2)c2c(CCC(=O)O)cc(=O)oc2c1 (tested in a mixture with another compound)

1. 32.2 µM
2. > 100 µM

* * *

- System: HOP-62 NSCLC
- METHOD: NCI tumour cell line growth inhibition, 48 h
MEASURED PARAMETER: TGI

Take a look at these entries with their results.
| COMPOUND | TGI |
| --- | --- |
| O=Cc1cn(CCCCCCCCn2cc(C=O)c3ccccc32)c2ccccc12 | > 10 µM |
| COC(=O)[C@@H]1C[C@@H](O)CN1C(=O)c1ccc([N+](=O)[O-])cc1[N+](=O)[O-] | > 100 µM |
| C=C(C)C1CC[C@@](C)(O)[C@H](C#N)C1 (some centres undefined) | > 100 µM |
| CC(=O)Nc1cc(Cl)cc(Cl)c1O | > 100 µM |
| CN(C)NC1=C([N+](=O)[O-])C=NN(c2ccccc2)C1 | 4.33 µM |

For each of the compounds below, state TGI.
1. C#C[C@@]1(O)[C@@H](CO)O[C@@H](n2cc(Br)c3c(Cl)ccnc32)[C@@H]1O
2. O=c1[nH]c2c(c(=O)[nH]1)SC(c1ccccc1)C2 (centres undefined)
3. Cc1nc2sc(C(=O)Nc3cccc(Br)c3C)c(N)c2cc1C(O)c1ccccc1 (centres undefined)
4. CC1(c2ccccc2)O[C@@H]2C[C@H]3[C@@H]4CCC5=CC(=O)C=C[C@]5(C)[C@@]4(F)[C@@H](O)C[C@]3(C)[C@]2(C(=O)CO)O1 (some centres undefined)
5. Cc1ccc(S(=O)(=O)OCOS(=O)(=O)c2ccc(C)cc2)cc1
6. O=C(/C=C/c1ccc(Cl)c(Cl)c1)c1ccccc1Cl
7. CCOC(=O)C1=C(C)N(c2ccc(Cl)cc2)C2(O)C=CC(=O)C3=C(O)c4ccccc4C(=O)C312 (centres undefined)
8. N#C/C(=C\c1c(O)cc(O)cc1O)C(N)=O

1. > 100 µM
2. > 100 µM
3. 18.5 µM
4. 29.2 µM
5. > 100 µM
6. 34.2 µM
7. 18.9 µM
8. > 100 µM
